Target: T1, dog iRhom2 full length wild type, C-terminally tagged with 3 consecutive copies of the T7 epitope (dog, UniProt Q00M95 1-827)
T1 construct: whole, on cells; also called Dog-iR2-FL-WT-T7
T1 sequence: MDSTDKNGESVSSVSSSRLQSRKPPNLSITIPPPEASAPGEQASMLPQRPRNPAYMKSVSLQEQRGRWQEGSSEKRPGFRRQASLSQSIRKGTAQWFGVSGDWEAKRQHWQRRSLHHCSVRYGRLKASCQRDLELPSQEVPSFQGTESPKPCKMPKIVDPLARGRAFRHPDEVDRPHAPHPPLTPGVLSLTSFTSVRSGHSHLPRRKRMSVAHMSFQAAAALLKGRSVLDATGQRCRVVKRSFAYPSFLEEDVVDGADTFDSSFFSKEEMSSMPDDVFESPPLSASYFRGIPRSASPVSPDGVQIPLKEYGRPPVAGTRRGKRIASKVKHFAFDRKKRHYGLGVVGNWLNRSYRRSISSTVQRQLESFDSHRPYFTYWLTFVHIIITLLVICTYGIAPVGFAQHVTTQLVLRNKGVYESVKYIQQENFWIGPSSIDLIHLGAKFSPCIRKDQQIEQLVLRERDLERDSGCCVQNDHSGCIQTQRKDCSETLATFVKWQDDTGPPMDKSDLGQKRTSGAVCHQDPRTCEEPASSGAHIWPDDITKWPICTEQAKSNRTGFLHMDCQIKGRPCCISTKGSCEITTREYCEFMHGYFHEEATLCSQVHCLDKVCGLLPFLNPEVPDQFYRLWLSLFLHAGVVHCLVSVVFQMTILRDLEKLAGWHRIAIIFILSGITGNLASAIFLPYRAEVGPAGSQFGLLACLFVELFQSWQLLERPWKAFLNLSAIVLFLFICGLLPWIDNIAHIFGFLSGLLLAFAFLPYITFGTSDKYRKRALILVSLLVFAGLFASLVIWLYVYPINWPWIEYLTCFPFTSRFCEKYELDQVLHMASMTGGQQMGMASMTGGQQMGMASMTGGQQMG
Assay: FACS, MEF-DKO-Dog-iR2-FL-WT-T7 cells
assay-readout: binding result

antibody 56 (antibody, V domains shown, Mouse IgG, kappa light chain; also called clone #56) VH: QVTLKESGPGILQPSQTLSLTCSFSGFSLSTFGMGVGWIRQPSGKGLEWLTNIWWDDDKYYNSVLKSRLTISKDTSKNQVFLKIANVDTADTATYYCARIAAYGSNYWYFDVWGTGTTVTVSS VL: QIVLTQSPAIMSASPGEKVTMTCSASSSVSYMYWYQQKPGSSPRVLIYDTSNLSSGVPVRFSGSGSGTSYSLTISRMEAEDAATYYCQQWSSYPLTFGAGTKLELK = binds
antibody 50 (antibody, V domains shown, Mouse IgG, kappa light chain; also called clone #50; purified antibody 50) VH: QVQLQQSGAELVRPGASVKVSCKASGYAFSNYLIEWVKQRPGQGLEWIGVINPGSGFTKYNEKFKGKATLTADKSSSTAYMQLSSLTSEDSAVYFCARGLYRAMDYWGQGTSVTVSS VL: DIQMTQSPASQSASLGESVTITCLASQTIGTWLAWYQQKPGKSPQLLIYAAASLADGVPSRFSGGGSGTKFSFKISSLQAEDFVNYYCQQIYSTPYTFGGGTKLEIK = binds
antibody 48 (antibody, V domains shown, Mouse IgG, kappa light chain; also called clone #48; purified antibody 48) VH: QVQLQQSGTELVRPGTSVKVSCKASGYAFTNYLIEWVKQRPGQGLEWIGVINPGSGFTKYNEKFKGKATLTADKSSSTVYMHLSSLTSEDSAVYFCARGLYRAMDYWGQGTSVTVSS VL: DIQMTQSPASQSASLGESVTITCLASQTIATWLAWYQQKPGKSPQLLIYGATTLADGVPSRFSGGGSGTKFSFKISSLQAEDFVSYYCQQLYSTPYTFGGGTKLEIK = binds
